Target: Mitogen-activated protein kinase kinase kinase kinase 4 (Homo sapiens);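 further: reported figure is an averaged inhibition value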
Settings: at 1 µM
Outcome label depends on inhibition relative to 20%: at/above gives MET, below gives NOT MET.

Record excerpt, results attached:
>>> df
                                     smiles                           subject_of_test  assigned_class
0  CNC(=O)c1cc(-c2ccc(F)cc2)cc(-c2ccc(S(=O)(=O)N3CCCC3)cc2)c1N  Mitogen-activated protein kinase kinase kinase kinase 4 (Homo sapiens)         NOT MET
1  COc1cccc(-c2c[nH]c3c(N/N=C/c4ccncc4)ncnc23)c1  Mitogen-activated protein kinase kinase kinase kinase 4 (Homo sapiens)             MET
2  COc1ccc(CNC(=O)c2ccc(-c3cc(-c4nnc(C)o4)ccc3C)cc2)cc1  Mitogen-activated protein kinase kinase kinase kinase 4 (Homo sapiens)         NOT MET

Task: # bool: inhibition of CN(C)CCOc1ccc(-c2nc(-c3ccncc3)c(-c3ccc4c(c3)CC/C4=N\O)[nH]2)cc1 >= 20%
Output: MET

Task: # bool: inhibition of CC(C)(CO)CNC(=O)c1ccc2c(c1)/C(=N/Nc1ccc(S(N)(=O)=O)cc1)C(=O)N2 >= 20%
Output: NOT MET

Task: # bool: inhibition of CNC(=O)c1cncc(/C=C/c2ccccc2Cl)c1 >= 20%
Output: NOT MET
